Target: T1, human GIPR (human), P48546
T1 chain: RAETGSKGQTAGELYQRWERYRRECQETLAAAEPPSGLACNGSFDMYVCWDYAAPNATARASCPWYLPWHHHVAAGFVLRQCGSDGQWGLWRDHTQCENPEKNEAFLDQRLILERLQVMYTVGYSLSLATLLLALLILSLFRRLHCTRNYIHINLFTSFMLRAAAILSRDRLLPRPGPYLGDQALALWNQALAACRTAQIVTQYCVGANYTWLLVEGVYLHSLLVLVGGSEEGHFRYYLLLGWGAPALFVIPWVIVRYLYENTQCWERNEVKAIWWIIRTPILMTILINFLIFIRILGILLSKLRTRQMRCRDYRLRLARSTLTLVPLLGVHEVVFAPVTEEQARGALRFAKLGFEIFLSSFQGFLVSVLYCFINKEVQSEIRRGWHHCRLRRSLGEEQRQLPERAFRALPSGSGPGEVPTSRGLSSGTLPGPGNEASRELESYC
Non-standard residues stand in square brackets, D forms with d. Groups on a side chain read outwards from the residue. Primed or numbered codes have the meaning given here. No end group written: not given here. *: point of attachment. C20 diacid = O=C(O)CCCCCCCCCCCCCCCCCCC(=O)*; NMeY = CN[C@@H](Cc1ccc(O)cc1)C(=O)O; αMeF = C[C@](N)(Cc1ccccc1)C(=O)O; Lauroyl = CCCCCCCCCCCC(=O)*; Iva = CC[C@](C)(N)C(=O)O; PEG2′ = not defined here; Hexanoyl = CCCCCC(=O)*; Aib = CC(C)(N)C(=O)O
ENDPOINT NAME: Agonist activity (EC50, M)
Just the number please, in M, no unit attached.

Solved entries:
binder="Y[Aib]EGTFISDYSK([PEG(2)-Lauroyl])ALDRIAQQSFVNWLLAQRPSSGAPPPSR (ends and bridges not checked) [Compound 196]" endpoint_name="Agonist activity (EC50, M)" units_of_measure=M meas_value=6.3e-12
binder="Me-Y[Aib]EGTFISDYSIALDR[Aib]AQ[Aib]SFVNW[Iva]LAQRPSSGAPPPSR (not fully specified (residue 1, C-terminus); ends and bridges not checked) [Compound 126]" endpoint_name="Agonist activity (EC50, M)" units_of_measure=M meas_value=2.1e-12

Prompt: Let me know recorded Agonist activity (EC50, M) for Y[Aib]EGTFISDYSK([PEG2′-Lauroyl])ALDRIAQQS[αMeF]VNW[Iva]LAQRPSSGAPPPS (not fully specified (C-terminus); ends and bridges not checked) [Compound 221] , thanks.
Completion: 7.1e-12

Prompt: Let me know recorded Agonist activity (EC50, M) for [NMeY][Aib]EGTFISDYSIALDRIAQ[Aib]N[αMeF]VNWLLAQRPSSGAPPPSR (not fully specified (C-terminus); ends and bridges not checked) [Compound 72] , thanks.
Completion: 2.6e-12

Prompt: Let me know recorded Agonist activity (EC50, M) for Y[Aib]EGTFISDYSK([PEG(2)-C20 diacid])ALDRIAQQNFVNW[Iva]LAQRPSSGAPPPS (ends and bridges not checked) [Compound 381] , thanks.
Completion: 4.4e-11

Prompt: Let me know recorded Agonist activity (EC50, M) for Y[Aib]EGTFISDYSK([PEG(2)-Lauroyl])ALDR[Aib]AQQDFVNWLLAQRPSSGAPPPSR (ends and bridges not checked) [Compound 198] , thanks.
Completion: 4.5e-12

Prompt: Let me know recorded Agonist activity (EC50, M) for Y[Aib]EGTFISDYSK([PEG2′-Ac])ALDRIHQQDFVNWLLAQRPSSGAPPPSR (ends and bridges not checked) [Compound 178] , thanks.
Completion: 4.2e-12

Prompt: Let me know recorded Agonist activity (EC50, M) for Y[Aib]EGTFISDYSK([PEG2′-Hexanoyl])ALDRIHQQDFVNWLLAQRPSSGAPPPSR (ends and bridges not checked) [Compound 179] , thanks.
Completion: 3e-12
